Recorded half-life, one value per entry.
test-method-notes: Pharmacokinetics in mice, IP cassette dosing, plasma LC/MS/MS
Type: in vivo, C57Bl/6 mouse
measurement-parameters: mouse, C57Bl/6 mice, 4 mg/kg IP, cassette format

[
  {
    "molecule": "CCN(c1cc(-c2ccc(CN3CCN(C(=O)CCCCCCCCCCC(=O)N[C@H](C(=O)N4C[C@H](O)C[C@@H]4C(=O)NCc4ccc(-c5scnc5C)cc4)C(C)(C)C)CC3)cc2)cc(C(=O)NCc2c(C)cc(C)[nH]c2=O)c1C)C1CCOCC1",
    "half-life": "3.5 to 6 h"
  }
]

Value lookup for half-life; key = `CCN(c1cc(-c2ccc(CN3CCN(CCCCCCCCCCCC(=O)N[C@H](C(=O)N4C[C@H](O)C[C@H]4C(=O)NCc4ccc(-c5scnc5C)cc4)C(C)(C)C)CC3)cc2)cc(C(=O)NCc2c(C)cc(C)[nH]c2=O)c1C)C1CCOCC1`
6.5 h

Now the same for CCN(c1cc(-c2ccc(CN3CCN(C(=O)CCCCCCCCCCCCCCC(=O)N[C@H](C(=O)C4C[C@H](O)C[C@H]4C(=O)NCc4ccc(-c5scnc5C)cc4)C(C)(C)C)CC3)cc2)cc(C(=O)NCc2c(C)cc(C)[nH]c2=O)c1C)C1CCOCC1 (stereo partly shown)
3.5 to 6 h

Subsequent entry: `CCN(c1cc(-c2ccc(CN3CCN(C(=O)CCCCCCCCCC(=O)N[C@H](C(=O)N4C[C@H](O)C[C@H]4C(=O)NCc4ccc(-c5scnc5C)cc4)C(C)(C)C)CC3)cc2)cc(C(=O)NCc2c(C)cc(C)[nH]c2=O)c1C)C1CCOCC1`
3.5 to 6 h
